These data points were gathered from patent US20260250290A1.

Molecular target: full length SGK1 (Homo sapiens, UniProt O00141)
Construct: 125 μM full length SGK1 (Life Technologies Part #PR7358A); purchased Life Technologies PR7358A
Sequence (O00141 1-431): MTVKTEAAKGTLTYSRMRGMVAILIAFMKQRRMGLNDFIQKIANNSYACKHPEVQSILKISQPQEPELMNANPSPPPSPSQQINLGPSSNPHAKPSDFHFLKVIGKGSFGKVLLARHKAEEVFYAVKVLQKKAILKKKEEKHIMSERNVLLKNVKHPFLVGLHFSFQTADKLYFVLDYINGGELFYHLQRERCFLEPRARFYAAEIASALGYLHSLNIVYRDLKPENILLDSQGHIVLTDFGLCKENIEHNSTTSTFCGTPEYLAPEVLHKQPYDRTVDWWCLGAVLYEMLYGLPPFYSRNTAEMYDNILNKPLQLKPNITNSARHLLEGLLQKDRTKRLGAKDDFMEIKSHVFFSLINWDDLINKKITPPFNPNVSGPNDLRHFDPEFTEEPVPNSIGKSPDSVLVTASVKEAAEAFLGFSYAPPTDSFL
Assay: SGK1 inhibition Assay A (Caliper LabChip electrophoretic separation of fluorescent peptide substrate and phosphorylated product)
Type: biochemical
Settings: Assay A; 20 μM ATP, 40 min incubation; read-out: SGK1 IC50
pIC50: −log10 of the molar value. Where a name gives a salt, the structure may show the parent alone.
Think of 7 as a floor: if pIC50 stands on it or above, it is Satisfied; beneath it, Not satisfied.

CC(=O)N1CC=C(c2cc(N3CCC[C@@H](NC(=O)c4ccnc(OCCN(C)C)c4)C3)c3c(N)ncnn23)C1 [Example 706] ... Satisfied

API: above_or_equal(metric=pIC50, cutoff=7) for item CC(=O)N1CC=C(c2cc(N3CCC[C@@H](NC(=O)c4ccc(C#N)cc4)C3)c3c(N)ncnn23)C1 [Example 494]
Satisfied

API: above_or_equal(metric=pIC50, cutoff=7) for item NC(=O)c1ncc(-c2cc(N3CCC[C@@H](NC(=O)c4ccc(C(F)F)s4)C3)c3c(N)ncnn23)cc1C(F)(F)F [Example 525]
Satisfied

API: above_or_equal(metric=pIC50, cutoff=7) for item N#Cc1ncc(-c2cc(N3CCC[C@@H](NC(=O)c4ccc(C(F)F)s4)C3)c3c(N)ncnn23)cn1 [Example 502]
Satisfied

API: above_or_equal(metric=pIC50, cutoff=7) for item CN1CCN(c2cccc(C(=O)N[C@@H]3CCCN(c4cc(-c5cnn(C6CCOC6)c5)n5ncnc(N)c45)C3)n2)CC1 (stereo partly shown) [Example 803]
Not satisfied

API: above_or_equal(metric=pIC50, cutoff=7) for item CS(=O)(=O)c1ccc(-c2cc(N3CCCC(NC(=O)Nc4ccccc4)C3)c3c(N)ncnn23)cc1 (stereo not shown) [Example 9, TFA]
Not satisfied
